Attribution: patent US11905253B2

# system tested: CD95/PLCγ1 interaction (SH3-PLCg1/CID-CD95) (Homo sapiens, UniProt P19174)
# Construct: SH3—PLCγ1-F1 or DD-FADD-F1 (inset) was co-transfected into HEK293T cells
# Sequence (P19174 791-851): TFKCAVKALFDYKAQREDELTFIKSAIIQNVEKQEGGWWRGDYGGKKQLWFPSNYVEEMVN
# run description: Renilla luciferase protein-fragment complementation assay (PCA), SH3-PLCγ1-F1 / CID-CD95-F2
# conditions: HEK293T cells, exposed 4 h, luminescence
value kind: pIC50
Worth noting: pIC50 values are minus log10 of concentrations stated in mol/L.

// known answers, use as guide
INSERT INTO measurements (compound, system_tested, value_kind, result) VALUES
  ('CC(O)C(N)C(=O)NCCN(C(=O)CCS)C(CCCNC(=N)N)C(=O)NCCN(C(=O)CCc1c[nH]c2ccccc12)C(Cc1c[nH]cn1)C(=O)NCCN(C(=O)CCCCNC(=N)N)C(CCCCN)C(N)=O (centres unmarked) [Compound 6]', 'CD95/PLCγ1 interaction (SH3-PLCg1/CID-CD95) (Homo sapiens, UniProt P19174)', 'pIC50', 3.45),
  ('N=C(N)NCCCC(C(=O)NCCN(C(=O)CCCCCN)C(Cc1cnc[nH]1)C(=O)NCCN(C(=O)CCc1ccc(O)cc1)C(CCCCN)C(N)=O)N(CCN)C(=O)CCS (centres unmarked) [Compound 26]', 'CD95/PLCγ1 interaction (SH3-PLCg1/CID-CD95) (Homo sapiens, UniProt P19174)', 'pIC50', 3.18),
  ('N=C(N)NCCCCC(=O)N(CCNC(=O)C(Cc1cnc[nH]1)N(CCNC(=O)C(CCCNC(=N)N)N(CCN)C(=O)CCS)C(=O)CCCCCC(N)=O)C(CCCCN)C(N)=O (centres unmarked) [Compound 2]', 'CD95/PLCγ1 interaction (SH3-PLCg1/CID-CD95) (Homo sapiens, UniProt P19174)', 'pIC50', 3.50);

Problem: May I ask what pIC50 has been recorded for N=C(N)NCCCCC(=O)N(CCNC(=O)C(Cc1cnc[nH]1)N(CCNC(=O)C(CCCNC(=N)N)N(CCN)C(=O)CCS)C(=O)CCCCCN)C(CCCCN)C(N)=O (centres unmarked) [Compound 14] ?
Solution: 4.12

Problem: Moving on to N=C(N)NCCCCC(=O)N(CCNC(=O)C(Cc1cnc[nH]1)N(CCNC(=O)C(CCCNC(=N)N)N(CCN)C(=O)CCC(N)=O)C(=O)CCCCCN)C(CCCCN)C(N)=O (centres unmarked) [Compound 17]
Solution: 3.47
